# System: Mycobacterium tuberculosis
# Assay Details: Antituberculosis activity against Mycobacterium tuberculosis H37Rv under anaerobic conditions by fluorescence based low-oxygen-recovery assay
# Assay type: functional
Measured Attribute: MIC

// known answers, use as guide
Chemical String | Measured Target | MIC
O=[N+]([O-])c1cn2c(n1)OC[C@@H](OCCOc1ccc(-c3ccc(C(F)(F)F)nc3)cc1)C2 | Mycobacterium tuberculosis | 4.1 µM
O=[N+]([O-])c1cn2c(n1)OC[C@@H](OC/C=C/c1ccc(OCc3ccccc3)cc1)C2 | Mycobacterium tuberculosis | 1.3 µM
O=[N+]([O-])c1cn2c(n1)OC[C@@H](Oc1ncc(-c3ccc(C(F)(F)F)nc3)cn1)C2 | Mycobacterium tuberculosis | 17 µM
O=[N+]([O-])c1cn2c(n1)OC[C@@H](Oc1ccc(C(F)(F)F)cn1)C2 | Mycobacterium tuberculosis | 16 µM

Exam item: Item `O=[N+]([O-])c1cn2c(n1)OC[C@@H](Oc1cc(-c3ccc(C(F)(F)F)nc3)ccn1)C2` has what recorded MIC?
Marked response: 27 µM

Exam item: Item `O=[N+]([O-])c1cn2c(n1)OC[C@@H](OCCCC#Cc1ccc(-c3ccc(OC(F)F)cc3)cc1)C2` has what recorded MIC?
Marked response: 39 µM

Exam item: Item `O=[N+]([O-])c1cn2c(n1)OC[C@@H](OC/C=C/c1ccc(OC(F)(F)F)cc1)C2` has what recorded MIC?
Marked response: 4.3 µM

Exam item: Item `O=[N+]([O-])c1cn2c(n1)OC[C@@H](OCc1ccc(C(F)(F)F)cn1)C2` has what recorded MIC?
Marked response: 22 µM

Exam item: Item `O=[N+]([O-])c1cn2c(n1)OC[C@@H](Oc1cc(-c3ccc(C(F)(F)F)cc3)ccn1)C2` has what recorded MIC?
Marked response: 32 µM

Exam item: Item `O=[N+]([O-])c1cn2c(n1)OC[C@@H](Oc1ccc(-c3ccc(C(F)(F)F)nc3)cc1)C2` has what recorded MIC?
Marked response: 4.1 µM

----------
# Assay Details: Stability of the compound in antimycobacterial activity assay condition assessed as parent compound level
# Assay type: ADME
Measured Attribute: Stability

// known answers, use as guide
Chemical String | Stability
O=[N+]([O-])c1cn2c(n1)OC[C@@H](OCCOc1ccc(-c3ccc(OC(F)(F)F)cc3)cn1)C2 | < 50%
O=[N+]([O-])c1cn2c(n1)OC[C@@H](Oc1cc(-c3ccc(OC(F)(F)F)cc3)ncn1)C2 | < 50%
O=[N+]([O-])c1cn2c(n1)OC[C@@H](OCC#Cc1ccc(OC(F)(F)F)cc1)C2 | < 50%

Exam item: Item `O=[N+]([O-])c1cn2c(n1)OC[C@@H](OCC#Cc1ccc(OCc3ccccc3)cc1)C2` has what recorded Stability?
Marked response: < 50%

Exam item: Item `O=[N+]([O-])c1cn2c(n1)OC[C@@H](OC/C=C/c1ccc(OCc3ccccc3)cc1)C2` has what recorded Stability?
Marked response: < 50%

Exam item: Item `O=[N+]([O-])c1cn2c(n1)OC[C@@H](OCCCC#Cc1ccc(OC(F)(F)F)cc1)C2` has what recorded Stability?
Marked response: < 50%

Exam item: Item `O=[N+]([O-])c1cn2c(n1)OC[C@@H](Oc1cc(-c3ccc(OC(F)(F)F)cc3)ccn1)C2` has what recorded Stability?
Marked response: < 50%
